Origin of the recorded values: ChEMBL document CHEMBL1134687

experimentalTarget: D(2) dopamine receptor (Rattus norvegicus, UniProt P61169)
Sequence (P61169 whole entry): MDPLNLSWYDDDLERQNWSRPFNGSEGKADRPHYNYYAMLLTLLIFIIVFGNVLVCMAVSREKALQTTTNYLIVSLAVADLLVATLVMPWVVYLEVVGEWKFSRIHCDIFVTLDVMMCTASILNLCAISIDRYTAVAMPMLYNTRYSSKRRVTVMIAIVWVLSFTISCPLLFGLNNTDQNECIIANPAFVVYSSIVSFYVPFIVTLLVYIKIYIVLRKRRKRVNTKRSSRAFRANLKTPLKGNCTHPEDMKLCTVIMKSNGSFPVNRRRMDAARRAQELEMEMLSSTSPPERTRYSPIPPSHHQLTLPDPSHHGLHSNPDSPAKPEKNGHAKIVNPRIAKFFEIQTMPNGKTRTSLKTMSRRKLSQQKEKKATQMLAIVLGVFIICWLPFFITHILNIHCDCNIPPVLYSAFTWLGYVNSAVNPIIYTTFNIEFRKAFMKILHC
protocolText: Binding affinity for dopamine receptor D2 long expressed in Sf9 cells using [125I]IABN radioligand.
Measured pKi accompanies every entry in the list below.
Reminder that pKi means the negative base-10 logarithm of the concentration expressed in mol/L.

compound	experimentalTarget	pKi
COc1c(C(=O)NC2CC3CCCC(C2)N3C2CCCCC2)cc(Br)c2ccccc12 (centres undefined)	D(2) dopamine receptor (Rattus norvegicus, UniProt P61169)	6.82
COc1cc(I)cc(C(=O)NC2CC3CCCC(C2)N3Cc2ccccc2)c1OC (centres undefined)	D(2) dopamine receptor (Rattus norvegicus, UniProt P61169)	10.30
COc1c(C(=O)NC[C@H]2CCCN2C2CCCCC2)cc(Br)c2ccccc12	D(2) dopamine receptor (Rattus norvegicus, UniProt P61169)	7.24
COc1c(C(=O)N[C@H]2CCN(C3C4CCCC3CCC4)C2)cc(Br)c2ccccc12 (some centres undefined)	D(2) dopamine receptor (Rattus norvegicus, UniProt P61169)	6.88

[Q] Quick one: give measured pKi for `COc1c(C(=O)NC[C@@H]2CCCN2Cc2ccccc2)cc(Br)c2ccccc12`
[A] 6.82

---

Known Ki of a selection of compounds
experimentalTarget: D(2) dopamine receptor (Rattus norvegicus)
protocolText: Binding affinity for dopamine receptor D2 long expressed in Sf9 cells using [125I]IABN radioligand.
The reply should contain only the number, in nM.

Below are worked cases with known answers.
compound	endpointUnit	Ki
COc1c(C(=O)NC2CCN(C3CCCC3)CC2)cc(Br)c2ccccc12	nM	210
COc1c(C(=O)NC2CCN(C3CCCCCC3)CC2)cc(Br)c2ccccc12	nM	23
COc1c(C(=O)NC[C@H]2CCCN2C2CCCC2)cc(Br)c2ccccc12	nM	157
COc1c(C(=O)NC[C@@H]2CCCN2C2C3CCCC2CCC3)cc(Br)c2ccccc12 (some centres undefined)	nM	26
COc1c(C(=O)N[C@@H]2CCN(C3C4CCCC3CCC4)C2)cc(Br)c2ccccc12 (some centres undefined)	nM	75
COc1c(C(=O)NC[C@@H]2CCCN2C2CCCCC2)cc(Br)c2ccccc12	nM	442

[Q] # return recorded Ki for input `COc1c(C(=O)NC[C@H]2CCCN2Cc2ccccc2)cc(Br)c2ccccc12`
[A] 11.4

[Q] Query Ki for COc1c(C(=O)NC2CC3CCCC(C2)N3Cc2ccccc2)cc(Br)c2ccccc12 (centres undefined)
[A] 0.2

[Q] # return recorded Ki for input COc1c(C(=O)NC2CC3CCCC(C2)N3C2CCCCCC2)cc(Br)c2ccccc12 (centres undefined)
[A] 152

[Q] Provide only the value of recorded Ki for `COc1c(C(=O)NC[C@@H]2CCCN2C2CCC2)cc(Br)c2ccccc12`
[A] 11.8

[Q] Tell me measured Ki for `COc1c(C(=O)N[C@@H]2CCN(Cc3ccccc3)C2)cc(Br)c2ccccc12` please.
[A] 12

---

experimentalTarget: D(2) dopamine receptor (Rattus norvegicus)
protocolText: Binding affinity for dopamine receptor D2 long expressed in Sf9 cells using [125I]IABN radioligand.
Reported Ki by item:
# value in nM; strip the unit string

Some compounds with recorded Ki:
COc1c(C(=O)N[C@@H]2CCN(C3CCCCC3)C2)cc(Br)c2ccccc12 74
COc1c(C(=O)NC[C@@H]2CCCN2C2CCCC2)cc(Br)c2ccccc12 59

[Q] Write down Ki measured for item `COc1c(C(=O)N[C@@H]2CCN(C3CCCC3)C2)cc(Br)c2ccccc12`
[A] 283
